target: MAGI1_2, Q96QZ7; experiment: holdup assay; design: key: below the threshold = too weak to quantify, mostly under pKd 3.1 to 4; settings: plain residues with an end cap or a label only (N-terminal biotin on a linker: ado-ado)
Sequence (Q96QZ7 456-580): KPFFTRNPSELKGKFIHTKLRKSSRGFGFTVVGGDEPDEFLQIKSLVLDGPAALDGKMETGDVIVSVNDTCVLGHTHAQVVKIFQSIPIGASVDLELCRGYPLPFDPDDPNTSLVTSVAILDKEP
ENDPOINT_LABEL: pKd

1. KSRPENGTVC [TMEM178B, H3BS89]    below the threshold
2. QKASRNESTF [POLR1D, P0DPB6]    below the threshold
3. SQPLLVHDDV [KIT, P10721]    below the threshold
4. LVEEEEPMNL [HDAC7, Q8WUI4]    below the threshold
5. NKSEPFLTWL [WWTR1, Q9GZV5]    3.51

Inquiry: Need pKd of IKLETKKTKL [SLC15A2, Q16348] , thanks.
Reply text: 3.58

Inquiry: Any idea what pKd was measured for VISSDDLTEL [CAPN6, Q9Y6Q1] ?
Reply text: below the threshold

Inquiry: Please report the recorded pKd for DSEEELPTRL [GRK6, P43250] .
Reply text: below the threshold

Inquiry: Please look up its pKd: QKNKDREYYV [NRXN3, Q9HDB5]
Reply text: below the threshold

Provenance of the data: paper PMC9482650
